Where do these numbers come from? They come from the supplement of paper PMC6607015.

- System: A431
- TEST DETAILS: filipin (cholesterol) integrated intensity within LBPA endosomes, Z-score; higher = more cholesterol in LBPA endosomes
- EXPERIMENTAL PARAMETERS: compound concentration in added solution (µM; 5 µl added to 20 µl cells): 10; 18 h
Where a name gives a salt, the structure may show the parent alone.
Known filipin (z-score) of a selection of molecules
Please state the value as a number alone, without comment.

Example entries begin here.
1) C[N+]1(CCCCC[N+]2(C)CCCC2)CCCC1 [Pentolinium bitartrate]	-0.437
2) CN(C)CCC[C@@]1(c2ccc(F)cc2)OCc2cc(C#N)ccc21 [Escitalopram]	-0.134
3) Cc1cc(N)c2ccccc2[n+]1CCCCCCCCCC[n+]1c(C)cc(N)c2ccccc21 [Dequalinium dichloride]	-0.599
4) NCc1ccc(S(N)(=O)=O)cc1 [Mafenide hydrochloride]	-0.471
5) CCCC1C(=O)N2C(N(C)C)=Nc3ccc(C)cc3N2C1=O (centres undefined) [Azapropazone]	-0.348

Exercise: Requested read-out: filipin (z-score). Entry: NS(=O)(=O)c1cc(C(=O)O)c(NCc2ccco2)cc1Cl [Furosemide]
Solution: -0.572

Exercise: Now try COc1ccc(C2CNC(=O)C2)cc1OC1CCCC1 (centres undefined) [Rolipram] .
Solution: -0.453

Exercise: Request: COc1cc(C(=O)NS(=O)(=O)c2ccccc2C)ccc1Cc1cn(C)c2ccc(NC(=O)OC3CCCC3)cc12 [Zafirlukast]
Solution: -0.486

Exercise: Field entry: CC(C(=O)O)c1cccc(Oc2ccccc2)c1 (centres undefined) [Fenoprofen calcium salt dihydrate]
Solution: -0.476

====

- Tested on: HeLa MZ
- TEST DETAILS: filipin (cholesterol) integrated intensity within LBPA endosomes, Z-score; higher = more cholesterol in LBPA endosomes
- EXPERIMENTAL PARAMETERS: compound concentration in added solution (µM; 5 µl added to 20 µl cells): 10; 18 h
Structures can show the parent of a compound that is named as a salt.
Assign yes whenever filipin (z-score) does not fall below -0.4; assign no whenever it does.

1. NNCCc1ccccc1 [Phenelzine sulfate]	no
2. O=C(O)c1cc(/N=N/c2ccc(S(=O)(=O)Nc3ccccn3)cc2)ccc1O [Sulfasalazine]	yes

Exercise: # bool: filipin (z-score) of NC(CO)C(=O)NNCc1ccc(O)c(O)c1O (centres undefined) [Benserazide hydrochloride] >= -0.4
Solution: no

Exercise: What do you have for O=c1cc(-c2ccc(O)c(O)c2)oc2cc(O)cc(O)c12 [Luteolin] ?
Solution: no

Exercise: // repeat for CC(=O)NCCCS(=O)(=O)O [Acamprosate calcium] and report
Solution: no

Exercise: Queued: COC(c1ccccc1)(c1ccccc1)[C@H](Oc1nc(C)cc(C)n1)C(=O)O [Ambrisentan]
Solution: yes

Exercise: Queued: CC(=C(CCO)SSCC1CCCO1)N(C=O)Cc1cnc(C)nc1N (stereo in doubt) [Fursultiamine Hydrochloride]
Solution: no

Exercise: Field entry: CC[C@]12CCCN3CCc4c(n(c5ccccc45)C(=O)C1)[C@@H]32 [Eburnamonine (-)]
Solution: no

Exercise: Follow-up item: CCCCC(=O)O[C@H]1CC[C@H]2[C@@H]3CCc4cc(O)ccc4[C@H]3CC[C@]12C [Estradiol Valerate]
Solution: yes

====

- Tested on: A431
- TEST DETAILS: whole-cell filipin (free cholesterol) integrated intensity, Z-score; higher = more cholesterol staining
- EXPERIMENTAL PARAMETERS: compound concentration in added solution (µM; 5 µl added to 20 µl cells): 10; 18 h
Counter-ions that a name gives are not always drawn.
PROPERTY LABEL: whole-cell filipin (z-score)
Kindly provide the number alone.

Solved entries (count: 7):
1) CC(C)(O/N=C(\C(=O)N[C@@H]1C(=O)N2C(C(=O)[O-])=C(C[n+]3ccccc3)CS[C@H]12)c1csc(N)n1)C(=O)O [Ceftazidime pentahydrate]	-0.451
2) CN(C)CC/C=C1\c2ccccc2CSc2ccccc21 [Dosulepin hydrochloride]	1.17
3) Cc1ccc(S(=O)(=O)NC(=O)NN2CCCCCC2)cc1 [Tolazamide]	-0.852
4) COc1cc(N)c(Cl)cc1C(=O)NC1CCN(Cc2ccccc2)CC1 [Clebopride maleate]	-0.171
5) CN1CCCN=C1/C=C/c1cccc(O)c1 [Oxantel pamoate]	-0.857
6) C#C[C@]1(OC(C)=O)CC[C@H]2[C@@H]3CCC4=CC(=NO)CC[C@@H]4[C@H]3CC[C@@]21CC (mixture of isomers) [Norgestimate]	0.197
7) NC1CCN(c2nc3c(cc2F)c(=O)c(C(=O)O)cn3-c2ccc(F)cc2F)C1 (stereo not drawn) [Tosufloxacin hydrochloride]	-0.466

Next molecule, please.
Exercise: Need whole-cell filipin (z-score), item CCN1CCN(C(=O)N[C@@H](C(=O)N[C@@H]2C(=O)N3[C@@H]2SC(C)(C)[C@@H]3C(=O)O)c2ccccc2)C(=O)C1=O [Piperacillin sodium salt]
Solution: -0.0934
